biological target: human mAChR M4 (Homo sapiens); construct: expressed in transfected cells; assay: mAChR M4 cell-based functional assay (calcium mobilization, CHO-K1 hM4-Gqi5 cells); settings: CHO-K1, % ACh maximum at 30 μM; human M4
The molecules listed here are annotated with their Emax at 30 µM.
Measured Metric: Emax at 30 µM (%)

- [2H]C([2H])(NC(=O)c1cc(C)c(N2CCc3ncc(C(F)(F)F)cc3C2)nn1)c1cscn1 [Example 507]: 81
- Cc1cc(C#N)cnc1N1CCc2ncc(Oc3ccc4c(cnn4C)c3)cc2C1 [compound 183]: 91
- Cc1c(C#N)nnc(N2CCc3ncc(Cc4ccccc4F)cc3C2)c1C [Example 369]: 63
- Cc1cc(C#N)cnc1N1CCc2ncc(OCCCOc3ccccc3)cc2C1 [Example 432]: 48

====

target: human mAChR M4 (Homo sapiens, UniProt P08173); construct: expressed in transfected cells; test: mAChR M4 cell-based functional assay (calcium mobilization, CHO-K1 hM4-Gqi5 cells); settings: CHO-K1, % ACh maximum at 30 μM; human M4
Measured Metric: Emax at 30 µM (%)

* Cc1cnc2c(c1)CN(c1nnc(C(=O)NCc3csc4ccccc34)c(C)c1C)CC2 | 102
* Cc1c(C#N)nnc(N2CCc3ncc(-c4ccnnc4)cc3C2)c1C | 82
* Cc1cc(C(=O)N2CCCC2)nnc1N1CCc2ncc(CC(F)(F)F)cc2C1 | 76
* COc1ccc(-c2cnc3c(c2)CN(c2nc(C)nc(C)c2C)CC3)cn1 | 65
* Cc1cc(-c2cnc3c(c2)CN(c2nc(C)nc(Cl)c2C)CC3)ccn1 | 95
* Cc1cc(C(=O)NCc2csc3ccccc23)cnc1N1CCc2ncccc2C1 | 74
* Cc1cc(C(=O)NC2(C#N)CC2)nnc1N1CCc2ncc(N3CCCn4nccc43)cc2C1 | 82
* Cc1cnc2c(c1)CN(c1ncc(C(=O)NCc3cncs3)cc1C)CC2 | 108
* Cc1cc(C#N)cnc1N1CCc2ncc(-c3ccnc(C#N)c3)cc2C1 | 49

====

Target: human mAChR M4 (Homo sapiens, UniProt P08173)
Construct: expressed in transfected cells
Sequence (P08173 1-479): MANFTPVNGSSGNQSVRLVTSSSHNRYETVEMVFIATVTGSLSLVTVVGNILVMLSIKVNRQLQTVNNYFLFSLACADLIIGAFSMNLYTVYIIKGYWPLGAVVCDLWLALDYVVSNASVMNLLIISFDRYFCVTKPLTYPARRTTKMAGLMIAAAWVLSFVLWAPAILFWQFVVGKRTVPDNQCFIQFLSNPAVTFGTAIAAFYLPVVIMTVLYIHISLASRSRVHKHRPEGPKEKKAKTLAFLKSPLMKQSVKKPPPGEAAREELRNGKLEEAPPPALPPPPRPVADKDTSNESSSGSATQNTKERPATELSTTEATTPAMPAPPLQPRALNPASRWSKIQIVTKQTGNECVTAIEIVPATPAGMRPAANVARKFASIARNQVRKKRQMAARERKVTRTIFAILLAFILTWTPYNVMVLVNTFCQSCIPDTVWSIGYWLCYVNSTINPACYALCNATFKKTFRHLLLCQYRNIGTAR
Assay: mAChR M4 cell-based functional assay (calcium mobilization, CHO-K1 hM4-Gqi5 cells)
Details: positive allosteric modulator activity, increase in the EC20 acetylcholine response, CHO-K1 hM4-Gqi5 cells; read-out: Human M4 EC50
pEC50: −log10 of the molar value.
Measured Metric: pEC50

* Cc1cc(C(=O)NCc2cncs2)nnc1N1CCc2ncc(-c3ccnn3C)cc2C1 | 7.51
* COCc1nc(Cl)c(C)c(N2CCc3ncc(C(F)(F)F)cc3C2)n1 | 6.15
* Cc1nc2c(c(N3CCc4ncc(C(F)(F)F)cc4C3)n1)CCC2 | 5.99
* Cc1cc(C#N)cnc1N1CCc2ncc(-c3cc(F)ncc3F)cc2C1 | 6.57

====

molecular target: human mAChR M4 (Homo sapiens, UniProt P08173); construct: expressed in transfected cells; experiment: mAChR M4 cell-based functional assay (calcium mobilization, CHO-K1 hM4-Gqi5 cells); conditions: CHO-K1, % ACh maximum at 30 μM; human M4
Measured Metric: Emax at 30 µM

* Cc1cc(C#N)nnc1N1CCc2ncc(C(C)(O)C(F)(F)F)cc2C1 (centres unmarked) | 86%
* Cc1cc(C#N)cnc1N1CCc2ncc(C3CCC3)cc2C1 | 91%
* [2H]C1([2H])Cc2ncc(Nc3cc(C)ncc3F)cc2C([2H])([2H])N1c1nnc(C#N)c(C)c1C | 92%
* Cc1nc(C)c(C)c(N2CCc3ncc(Oc4cccc(F)c4F)cc3C2)n1 | 72%
* COc1ccc(Oc2cnc3c(c2)CN(c2nnc(C#N)c(C)c2C)CC3)cn1 | 48%
* O=C(NCc1cncs1)c1ccc(N2CCc3ncc(C(F)(F)F)cc3C2)nn1 | 81%
* Cc1nc(Cl)c(C)c(N2CCc3ncc(Nc4cccc(F)c4F)cc3C2)n1 | 84%
* Cc1ccc(Oc2cnc3c(c2)CN(c2nnc(C#N)c(C)c2C)CC3)c(F)c1 | 82%

====

Molecular target: human mAChR M4 (Homo sapiens)
Construct: expressed in transfected cells
Sequence (P08173 1-479): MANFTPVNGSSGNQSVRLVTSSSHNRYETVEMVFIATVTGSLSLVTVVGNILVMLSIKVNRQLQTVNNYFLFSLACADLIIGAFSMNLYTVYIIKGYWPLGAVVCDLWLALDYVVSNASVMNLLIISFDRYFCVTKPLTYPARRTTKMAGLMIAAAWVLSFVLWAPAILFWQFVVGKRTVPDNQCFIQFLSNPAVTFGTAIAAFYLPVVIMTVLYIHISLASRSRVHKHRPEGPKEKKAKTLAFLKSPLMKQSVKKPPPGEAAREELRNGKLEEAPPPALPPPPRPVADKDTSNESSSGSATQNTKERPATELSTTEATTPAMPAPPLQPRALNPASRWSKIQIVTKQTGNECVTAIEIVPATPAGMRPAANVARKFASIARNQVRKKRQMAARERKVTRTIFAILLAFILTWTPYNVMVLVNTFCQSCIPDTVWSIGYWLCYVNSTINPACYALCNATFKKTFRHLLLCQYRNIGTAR
Experiment: mAChR M4 cell-based functional assay (calcium mobilization, CHO-K1 hM4-Gqi5 cells)
Details: positive allosteric modulator activity, increase in the EC20 acetylcholine response, CHO-K1 hM4-Gqi5 cells; read-out: Human M4 EC50
pEC50: −log10 of the molar value.
Below: a set of entries, each annotated with reported pEC50.
Measured Metric: pEC50

* Cc1cc(C#N)cnc1N1CCc2ncc(Nc3ccc(F)cc3)cc2C1 | 6.34
* Cc1cc(C#N)nnc1N1CCc2ncc(C(F)F)cc2C1 | 6.11
* Cc1nn(C)cc1-c1cnc2c(c1)CN(c1nc(N3CCN(C)CC3)nc(C)c1C)CC2 | 6.01
* Cc1cc(C(=O)NCc2ccncc2)nnc1N1CCc2ncc(C(F)(F)F)cc2C1 | 7.43
* Cc1cc(C#N)cnc1N1CCc2ncc(N3CCOC(C)(C)C3)cc2C1 | 7.09

====

molecular target: human mAChR M4 (Homo sapiens, UniProt P08173); construct: expressed in transfected cells; experiment: mAChR M4 cell-based functional assay (calcium mobilization, CHO-K1 hM4-Gqi5 cells); conditions: positive allosteric modulator activity, increase in the EC20 acetylcholine response, CHO-K1 hM4-Gqi5 cells; read-out: Human M4 EC50
Measured Metric: EC50 (nM)

- Cc1cc(C#N)cnc1N1CCc2ncc(Oc3cccc(F)c3)cc2C1 [compound 181]: 141
- [2H]C1([2H])Cc2ncc(Nc3cc(C)ncc3F)cc2C([2H])([2H])N1c1ncc(C#N)cc1C [Example 601]: 7
- Cc1nc(N2CCCC2)c(C)c(N2CCc3ncc(-c4ccc(F)nc4)cc3C2)n1 [compound 223]: 3290
- Cc1cc(C(=O)NCc2ccncc2Cl)nnc1N1CCc2ncc(C(F)(F)F)cc2C1 [Example 497]: 64
- Cc1nc(Cl)c(C)c(N2CCc3nc(C(F)(F)F)ccc3C2)n1 [compound 218]: 759
- Cc1c(C#N)nnc(N2CCc3ncc(Nc4cccc(Cl)c4F)cc3C2)c1C [Example 36]: 698
- Cc1cc(C(=O)NCc2ccnn2C)cnc1N1CCc2ncccc2C1 [compound 63]: 2710
- Cc1c(C(=O)NCc2cccnc2)nnc(N2CCc3ncccc3C2)c1C [compound 136]: 1880
- Cc1nc(NC2CCOC2)nc(N2CCc3ncc(Nc4ccnn4C)cc3C2)c1C (stereo not drawn) [compound 279]: 191
- COc1nc(N2CCc3ncc(C(F)(F)F)cc3C2)c(C)cc1C#N [Example 371]: 4350
- Cc1cc(C(=O)N2CCC2)nnc1N1CCc2ncc(N3CCO[C@H](C)C3)cc2C1 [Example 537]: 131
- Cc1nn(C)cc1-c1cnc2c(c1)CN(c1nc(NC3CCOC3)nc(C)c1C)CC2 (stereo not drawn) [compound 273]: 639
- Cc1cc(C(=O)NCc2ccccn2)cnc1N1CCc2ncccc2C1 [compound 59]: 6910
- Cc1c(C#N)nnc(N2CCc3ncc(C(F)(F)F)cc3C2)c1C [Example 303]: 1600
- Cc1cc(C#N)cnc1N1CCc2ncc(C3CCC3)cc2C1 [Example 403]: 84
- Cc1cc(C(=O)N2CC(C(F)F)C2)nnc1N1CCc2ncc(N3CCCn4nccc43)cc2C1 [Example 524]: 18
- Cc1cc(C(=O)N2CCC2c2ccccc2)nnc1N1CCc2ncc(N3CCCn4nccc43)cc2C1 (stereo not drawn) [Example 557]: 166
